Values from PubChem BioAssay (NCATS)

molecular target: Cytochrome P450 2D6 (Homo sapiens) (UniProt P10635); assay: Cytochrome P450 family 2 subfamily D member 6 (CYP2D6) small molecule antagonists: luciferase biochemical (cell-free) qHTS assay (AID 1645840); settings: P450-Glo CYP2D6 enzyme, luciferin luminescence, 1 h; series mostly up to 57.4 µM; note: nearly all actives have a fitted effect of over 55% in size; note: potency is the fitted concentration of half-maximal effect
Sequence (P10635 whole entry, looked up): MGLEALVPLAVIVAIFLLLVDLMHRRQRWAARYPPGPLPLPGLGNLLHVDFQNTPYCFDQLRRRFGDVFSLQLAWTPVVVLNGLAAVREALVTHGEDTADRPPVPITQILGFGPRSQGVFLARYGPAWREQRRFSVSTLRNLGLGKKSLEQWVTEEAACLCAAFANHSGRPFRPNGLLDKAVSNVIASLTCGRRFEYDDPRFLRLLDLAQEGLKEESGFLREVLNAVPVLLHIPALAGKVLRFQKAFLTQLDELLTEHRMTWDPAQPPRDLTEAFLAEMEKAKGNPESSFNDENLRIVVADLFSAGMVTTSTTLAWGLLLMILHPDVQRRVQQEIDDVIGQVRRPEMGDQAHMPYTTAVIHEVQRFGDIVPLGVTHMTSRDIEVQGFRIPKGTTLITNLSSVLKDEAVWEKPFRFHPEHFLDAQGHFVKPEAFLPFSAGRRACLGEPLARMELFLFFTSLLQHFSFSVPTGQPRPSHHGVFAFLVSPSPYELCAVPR
Records with an inconclusive call do not appear. Active and inactive are the calls of the source. Calls come from the whole dose curve; as a rule, active = well fitted inhibition curve with a large enough effect in the repeat runs; inconclusive = weak or mixed curves; inactive = flat fitted curve, though single readings scatter.

>  <compound>
C[C@@H]1C[C@H]2[C@@H]3CCC4=CC(=O)C=C[C@]4(C)[C@@]3(Cl)[C@@H](O)C[C@]2(C)[C@@]1(OC(=O)c1ccco1)C(=O)CCl

>  <Potency>
2.45 µM (active)

$$$$
>  <compound>
CN(Cc1cc(Br)cc(Br)c1N)C1CCCCC1

>  <Potency>
0.0195 µM (active)

$$$$
>  <compound>
O=C(O)CCn1c2c(c3ccccc31)C[C@H](NS(=O)(=O)c1ccc(F)cc1)CC2

>  <Potency>
inactive

$$$$
>  <compound>
CCn1cc(C(=O)O)c(=O)c2cc(F)c(N3CCNCC3)cc21

>  <Potency>
inactive

$$$$
>  <compound>
CNC1CCCN(c2c(F)cc3c(=O)c(C(=O)O)cn(C4CC4)c3c2OC)C1 (configuration not stated)

>  <Potency>
inactive

$$$$
>  <compound>
CO[C@@H]1[C@@H](OC(N)=O)[C@@H](O)[C@H](Oc2ccc3c(O)c(NC(=O)c4ccc(O)c(CC=C(C)C)c4)c(=O)oc3c2C)OC1(C)C

>  <Potency>
inactive

$$$$
>  <compound>
CCCCCCNC(=O)n1cc(F)c(=O)[nH]c1=O

>  <Potency>
15.5 µM (active)

$$$$
>  <compound>
COc1cccc(N(C)C(=S)Oc2ccc3c(c2)CCCC3)n1

>  <Potency>
inactive

$$$$
>  <compound>
Nc1ccc(S(=O)(=O)Nc2ccccn2)cc1

>  <Potency>
inactive

$$$$
>  <compound>
COc1ccc2c(c1)c(CC(=O)OCC(=O)O)c(C)n2C(=O)c1ccc(Cl)cc1

>  <Potency>
inactive

$$$$
>  <compound>
Cc1ncc([N+](=O)[O-])n1CCO

>  <Potency>
inactive

$$$$
>  <compound>
CNS(=O)(=O)Cc1ccc2[nH]cc(CCN(C)C)c2c1

>  <Potency>
inactive

$$$$
>  <compound>
CC(C)(Sc1cc(C(C)(C)C)c(O)c(C(C)(C)C)c1)Sc1cc(C(C)(C)C)c(O)c(C(C)(C)C)c1

>  <Potency>
inactive

$$$$
>  <compound>
COc1ncnc(NS(=O)(=O)c2ccc(N)cc2)c1OC

>  <Potency>
inactive

$$$$
>  <compound>
C1CCC(C(CC2CCCCN2)C2CCCCC2)CC1 (configuration not stated)

>  <Potency>
0.138 µM (active)

$$$$
>  <compound>
O=C(O)c1cc(=O)[nH]c(=O)[nH]1

>  <Potency>
inactive

$$$$
>  <compound>
C[C@@H]1CN(c2c(F)c(N)c3c(=O)c(C(=O)O)cn(C4CC4)c3c2F)C[C@H](C)N1

>  <Potency>
inactive

$$$$
>  <compound>
CCN(CC)CC#CCOC(=O)C(O)(c1ccccc1)C1CCCCC1 (configuration not stated)

>  <Potency>
3.01 µM (active)

$$$$
>  <compound>
O=C(O)c1cccnc1

>  <Potency>
inactive

$$$$
>  <compound>
CCOC(=O)c1ccc(OC(=O)CCCCCN=C(N)N)cc1

>  <Potency>
0.0977 µM (active)

$$$$
>  <compound>
Cc1noc(NS(=O)(=O)c2ccc(N)cc2)c1C

>  <Potency>
inactive

$$$$
>  <compound>
C[C@@H](CN1CC(=O)NC(=O)C1)N1CC(=O)NC(=O)C1

>  <Potency>
inactive

$$$$

###

experiment: Quantitative High-Throughput drug screen in 47 multiple myeloma cell lines against the NCATS MIPE library collection: JJN3_DSMZ cell viability assay (AID 1918966; note: nearly all actives have a fitted effect of over 50% in size); settings: JJN3 myeloma cells viability, CellTiter-Glo ATP, 48 h; series mostly up to 45.8 µM
Records with an inconclusive call do not appear. Activity calls are given as the source filed them. The call rests on the fitted dose curve; in most records, active means well fitted cell-killing curve with a large enough effect; inconclusive means small, poorly fitted or top-dose-only effect, or effect the other way; inactive means no such curve, though single readings can be large or run the other way.
Classes used: active, inactive

>  <compound>
Cc1cccc(Nc2ccncc2S(=O)(=O)NC(=O)NC(C)C)c1

>  <class.label>
active

$$$$
>  <compound>
CCCCCCNC(=O)n1cc(F)c(=O)[nH]c1=O

>  <class.label>
active

$$$$
>  <compound>
CC(C)OC(=O)C(C(=O)OC(C)C)=C1SC=CS1

>  <class.label>
inactive

$$$$
>  <compound>
CCCOc1ccc(C(=O)OCCN(CC)CC)cc1N

>  <class.label>
inactive

$$$$
>  <compound>
CC(N)C12CC3CC(CC(C3)C1)C2 (stereo not drawn)

>  <class.label>
inactive

$$$$
>  <compound>
COc1cc2nc(N3CCCN(C)CC3)nc(NC3CCN(Cc4ccccc4)CC3)c2cc1OC

>  <class.label>
active

$$$$
>  <compound>
COc1ccc2c(c1)c(CC(=O)OCC(=O)O)c(C)n2C(=O)c1ccc(Cl)cc1

>  <class.label>
inactive

$$$$
>  <compound>
N[C@@H](C(=O)N[C@@H]1C(=O)N2C(C(=O)O)=C(Cl)CS[C@H]12)c1ccccc1

>  <class.label>
inactive

$$$$
>  <compound>
CCCc1nc(C)c2c(=O)[nH]c(-c3cc(S(=O)(=O)N4CCN(CC)CC4)ccc3OCC)nn12

>  <class.label>
active

$$$$
>  <compound>
COc1nc(N)nc2c1ncn2[C@@H]1O[C@H](CO)[C@@H](O)[C@@H]1O

>  <class.label>
active

$$$$
>  <compound>
CCn1cc(C(=O)O)c(=O)c2cc(F)c(N3CCNCC3)nc21

>  <class.label>
inactive

$$$$
>  <compound>
CC(C)Cn1cnc2c(N)nc3ccccc3c21

>  <class.label>
active

$$$$
>  <compound>
CCCc1cc(C(N)=S)ccn1

>  <class.label>
inactive

$$$$
>  <compound>
C[C@@H](CN1CC(=O)NC(=O)C1)N1CC(=O)NC(=O)C1

>  <class.label>
inactive

$$$$
>  <compound>
COC(=O)Nc1nc2ccc(C(=O)c3ccccc3)cc2[nH]1

>  <class.label>
active

$$$$
>  <compound>
Cc1ccc(S(=O)(=O)N[C@@H](Cc2ccccc2)C(=O)CCl)cc1

>  <class.label>
active

$$$$
>  <compound>
Nc1nc(=S)c2[nH]cnc2[nH]1

>  <class.label>
active

$$$$
>  <compound>
CC(C)C[C@H](NC(=O)[C@H](CCc1ccccc1)NC(=O)CN1CCOCC1)C(=O)N[C@@H](Cc1ccccc1)C(=O)N[C@@H](CC(C)C)C(=O)[C@@]1(C)CO1

>  <class.label>
active

$$$$
>  <compound>
CCOCC(O)COc1ccc(NC(=O)CC[S+](C)C)cc1 (stereo not drawn)

>  <class.label>
inactive

$$$$
>  <compound>
CCCN[C@H]1CCc2nc(N)sc2C1

>  <class.label>
inactive

$$$$
>  <compound>
CCOc1cc(N)c(Cl)cc1C(=O)NCC1CN(Cc2ccc(F)cc2)CCO1 (stereo not drawn)

>  <class.label>
inactive

$$$$
>  <compound>
CC(C)(C#N)c1cc(Cn2cncn2)cc(C(C)(C)C#N)c1

>  <class.label>
active

$$$$
>  <compound>
C[C@@H]1C[C@H]2[C@@H]3CCC4=CC(=O)C=C[C@]4(C)[C@@]3(Cl)[C@@H](O)C[C@]2(C)[C@@]1(OC(=O)c1ccco1)C(=O)CCl

>  <class.label>
active

$$$$
>  <compound>
CCOC(=O)c1ccc(OC(=O)CCCCCN=C(N)N)cc1

>  <class.label>
inactive

$$$$
>  <compound>
COc1cc(NCc2ccc3nc(N)nc(N)c3c2C)cc(OC)c1OC

>  <class.label>
active

$$$$
>  <compound>
O=C(O)CSCC(=O)NC1CCSC1=O (stereo not drawn)

>  <class.label>
inactive

$$$$
>  <compound>
CCC(=O)O[C@]1(C(=O)SCF)[C@H](C)C[C@H]2[C@@H]3C[C@H](F)C4=CC(=O)C=C[C@]4(C)[C@@]3(F)[C@@H](O)C[C@@]21C

>  <class.label>
inactive

$$$$
>  <compound>
COc1ccc2cc3[n+](cc2c1OC)CCc1cc2c(cc1-3)OCO2

>  <class.label>
active

$$$$
>  <compound>
N=C(N)c1ccc(OCCCCCOc2ccc(C(=N)N)cc2)cc1

>  <class.label>
active

$$$$
>  <compound>
CCCCS(=N)(=O)CCC(N)C(=O)O (stereo not drawn)

>  <class.label>
inactive

$$$$
>  <compound>
CC(C)(C)C(=O)OCOP(=O)(COCCn1cnc2c(N)ncnc21)OCOC(=O)C(C)(C)C

>  <class.label>
active

$$$$
>  <compound>
Oc1c(Cl)cc(Cl)c2cccnc12

>  <class.label>
active

$$$$
>  <compound>
COc1cc2ncnc(Nc3cccc(Cl)c3)c2cc1OC

>  <class.label>
active

$$$$
